- study-target: HNF4alpha8 (COS-7 nuclear extract) (Homo sapiens, UniProt P41235-5 1-452)
- Sequence: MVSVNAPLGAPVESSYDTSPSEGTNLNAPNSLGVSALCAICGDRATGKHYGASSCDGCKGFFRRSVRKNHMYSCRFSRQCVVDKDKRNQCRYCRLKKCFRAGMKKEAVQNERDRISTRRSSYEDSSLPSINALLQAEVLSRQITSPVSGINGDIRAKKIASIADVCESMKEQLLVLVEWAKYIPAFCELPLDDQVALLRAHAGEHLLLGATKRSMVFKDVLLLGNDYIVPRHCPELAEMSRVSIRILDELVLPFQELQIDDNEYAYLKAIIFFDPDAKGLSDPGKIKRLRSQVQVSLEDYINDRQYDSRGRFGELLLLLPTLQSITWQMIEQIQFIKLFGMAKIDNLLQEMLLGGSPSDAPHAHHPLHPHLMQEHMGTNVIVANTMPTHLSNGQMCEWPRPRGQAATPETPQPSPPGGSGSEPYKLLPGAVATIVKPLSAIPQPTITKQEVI
- run-description: protein-binding microarray; COS-7 nuclear extract on double-stranded Agilent 4x180k PBM; binding buffer, salt, pH and temperature not given in the material; high values mean tight binding
- experimental-conditions: chain copies: 2; label: 3' end of strand 1 on the slide; dsDNA, one strand shown
Whole data set: some 18,000 sequences, median “log2 normalized intensity” near 0.36, cut for the highest 2% near 7.3. The entries come from a sample that favours the highest values as a whole.
We'd kindly ask you to apply these binding signal classes: lowest (below 2 log2 normalized intensity), middle (2 log2 normalized intensity to below 7 log2 normalized intensity), highest (7 log2 normalized intensity or more)

| sequence-record | answer-label |
| --- | --- |
| GCCCCTGGCTGGGCCCTGACCTCAAGTGACGCCTAGGGAGATTAGAGTATCGGTCGA | middle |
| TTAGCTATTTGACCTTCGGCCTCAATTATAGCCTAGGGAGATTAGAGTATCGGTCGA | highest |
| GTGAGTGTGTTGGCAAGAGATCTGCAGGGTGCCTAGGGAGATTAGAGTATCGGTCGA | lowest |
| ACAGCGTTTTCCCATTCATGACATTGATTTGCCTAGGGAGATTAGAGTATCGGTCGA | lowest |
| TTATCATTACTTCTCAACTGATATGGCTCTGCCTAGGGAGATTAGAGTATCGGTCGA | lowest |
| TGGCTGGGCCCTGACCTCAAGTGACCTTTGGCCTAGGGAGATTAGAGTATCGGTCGA | highest |
| GGAGTGTGGGGTGGTGTCAGGAGTACAGGTGCCTAGGGAGATTAGAGTATCGGTCGA | lowest |
| ACCAAAACCAAGATAGTGACGGAGGTGACCGCCTAGGGAGATTAGAGTATCGGTCGA | lowest |
| AACCAAGATAGTGACGGAGGTGACCTTTGGGCCTAGGGAGATTAGAGTATCGGTCGA | highest |
| AAAGTCCATATTCTTTGTTTGGATGCCAAAGCCTAGGGAGATTAGAGTATCGGTCGA | middle |
| TGGCGTATGCAGCAGGGCAGCAGCCTGACCGCCTAGGGAGATTAGAGTATCGGTCGA | lowest |
| TTGTTTAGGTACAAAGTCCATTGGAAGCCAGCCTAGGGAGATTAGAGTATCGGTCGA | middle |
| ATGCAAAGCCCTGGCTGACCTTTAGCCTGGGCCTAGGGAGATTAGAGTATCGGTCGA | highest |
| CTCTGAGATTCGGTGAGGGATTGTTTAGGTGCCTAGGGAGATTAGAGTATCGGTCGA | lowest |
| CTGATTTAGCTATTTGACCTTCGGCCTCAAGCCTAGGGAGATTAGAGTATCGGTCGA | highest |
| CTATGTCAGGCCATTTCACCTTTGCCCTGTGCCTAGGGAGATTAGAGTATCGGTCGA | highest |
| CAAGAATGCAAAGCCCTGGCTGACCTTTAGGCCTAGGGAGATTAGAGTATCGGTCGA | middle |
| CGCTGCGGGTCACGTGCCGCTGCGGGTCACGCCTAGGGAGATTAGAGTATCGGTCGA | middle |

---

- study-target: HNF4alpha8 (COS-7 nuclear extract) (Homo sapiens, UniProt P41235-5 1-452)
- Sequence: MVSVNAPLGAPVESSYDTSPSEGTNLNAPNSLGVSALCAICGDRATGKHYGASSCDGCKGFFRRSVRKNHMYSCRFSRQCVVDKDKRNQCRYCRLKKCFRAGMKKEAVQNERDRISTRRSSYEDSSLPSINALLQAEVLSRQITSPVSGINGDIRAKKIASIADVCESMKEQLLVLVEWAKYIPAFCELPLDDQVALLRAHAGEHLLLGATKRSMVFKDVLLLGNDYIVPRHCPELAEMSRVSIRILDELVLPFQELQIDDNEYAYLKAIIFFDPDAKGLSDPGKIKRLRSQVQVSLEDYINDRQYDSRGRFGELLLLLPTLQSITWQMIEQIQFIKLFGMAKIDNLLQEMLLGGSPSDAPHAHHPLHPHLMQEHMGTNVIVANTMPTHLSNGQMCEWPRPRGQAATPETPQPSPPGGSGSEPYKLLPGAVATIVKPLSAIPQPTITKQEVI
- run-description: protein-binding microarray; COS-7 nuclear extract on double-stranded Agilent 4x180k PBM; binding buffer, salt, pH and temperature not given in the material; high values mean tight binding
- experimental-conditions: chain copies: 2; label: 3' end of strand 1 on the slide; dsDNA, one strand shown
Whole data set: some 18,000 sequences, median “log2 normalized intensity” near 0.36, cut for the highest 2% near 7.3. What follows is part of a selection rich in the highest values, with near analogues and random picks from the rest.
binding signal by entry:
recorded-endpoint: binding signal (log2 normalized intensity)

| sequence-record | study-target | recorded-value |
| --- | --- | --- |
| CCTGTTTGACCTTCGAACCCTTGCCATTTAGCCTAGGGAGATTAGAGTATCGGTCGA | HNF4alpha8 (COS-7 nuclear extract) (Homo sapiens, UniProt P41235-5 1-452) | 7.81 |
| CAACCTCTCCAATGCTATGCTTTTATTTAAGCCTAGGGAGATTAGAGTATCGGTCGA | HNF4alpha8 (COS-7 nuclear extract) (Homo sapiens, UniProt P41235-5 1-452) | -0.995 |
| CCTCTGAAAACTTTTACTGGGAAGAGATAAGCCTAGGGAGATTAGAGTATCGGTCGA | HNF4alpha8 (COS-7 nuclear extract) (Homo sapiens, UniProt P41235-5 1-452) | -0.817 |
| CTTTCATCTTTGCGGTGAGCATTTGTTTAGGCCTAGGGAGATTAGAGTATCGGTCGA | HNF4alpha8 (COS-7 nuclear extract) (Homo sapiens, UniProt P41235-5 1-452) | 0.99 |
| CCACCCTATTGATGCAAGGACAATGTCTAGGCCTAGGGAGATTAGAGTATCGGTCGA | HNF4alpha8 (COS-7 nuclear extract) (Homo sapiens, UniProt P41235-5 1-452) | 1.38 |
| AATACTCCAGTCATTGTACAAACACATACCGCCTAGGGAGATTAGAGTATCGGTCGA | HNF4alpha8 (COS-7 nuclear extract) (Homo sapiens, UniProt P41235-5 1-452) | -0.533 |
| ACTACTAACCGAAAGTCTGACCCTTGACCAGCCTAGGGAGATTAGAGTATCGGTCGA | HNF4alpha8 (COS-7 nuclear extract) (Homo sapiens, UniProt P41235-5 1-452) | 7.2 |
| GACATAAATCACATTGTTAGCATAGCCTATGCCTAGGGAGATTAGAGTATCGGTCGA | HNF4alpha8 (COS-7 nuclear extract) (Homo sapiens, UniProt P41235-5 1-452) | -0.813 |
| CCCAGTATGAGCGGCGCTGACCCCGGGAGCGCCTAGGGAGATTAGAGTATCGGTCGA | HNF4alpha8 (COS-7 nuclear extract) (Homo sapiens, UniProt P41235-5 1-452) | 3.67 |

---

- study-target: HNF4alpha8 (COS-7 nuclear extract) (Homo sapiens, UniProt P41235-5 1-452)
- Sequence: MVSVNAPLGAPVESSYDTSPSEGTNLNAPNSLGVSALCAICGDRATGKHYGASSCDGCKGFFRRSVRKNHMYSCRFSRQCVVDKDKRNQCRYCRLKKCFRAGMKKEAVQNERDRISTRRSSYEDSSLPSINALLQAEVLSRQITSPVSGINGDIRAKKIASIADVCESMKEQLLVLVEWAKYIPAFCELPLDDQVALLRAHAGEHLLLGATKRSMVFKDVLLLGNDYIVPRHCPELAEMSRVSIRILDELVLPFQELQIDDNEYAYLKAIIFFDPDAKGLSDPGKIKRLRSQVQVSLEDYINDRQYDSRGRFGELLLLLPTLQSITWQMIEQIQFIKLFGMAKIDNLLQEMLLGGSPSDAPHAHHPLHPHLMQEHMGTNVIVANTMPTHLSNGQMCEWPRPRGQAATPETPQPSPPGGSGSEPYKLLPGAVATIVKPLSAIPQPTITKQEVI
- run-description: protein-binding microarray; COS-7 nuclear extract on double-stranded Agilent 4x180k PBM; binding buffer, salt, pH and temperature not given in the material; high values mean tight binding
- experimental-conditions: chain copies: 2; label: 3' end of strand 1 on the slide; dsDNA, one strand shown
The full ranking holds about 18,000 sequences; the median of “log2 normalized intensity” is about 0.36, and the highest 2% start at about 7.3. Many of the other results were omitted from the sample, so the highest values are more common in it than they were.
If the reported binding signal equals or exceeds 5 log2 normalized intensity, assign 1.0. If not, assign 0.0.

| sequence-record | answer-label |
| --- | --- |
| CTTTTTGACCTTGCAGTGGCAAGGCAAAAGGCCTAGGGAGATTAGAGTATCGGTCGA | 0.0 |
| AAACTTATCTTGTGACCTTTGACTCATTATGCCTAGGGAGATTAGAGTATCGGTCGA | 1.0 |
| TGGAGCATGACCCTTTGCAGGTGGGAGAGGGCCTAGGGAGATTAGAGTATCGGTCGA | 0.0 |
| AGTGCTGCATGCAAAAAGGCTGACCTTTGAGCCTAGGGAGATTAGAGTATCGGTCGA | 1.0 |
| GAGGTGGGCCCAGGGTTCTCTGTGACCTTTGCCTAGGGAGATTAGAGTATCGGTCGA | 1.0 |
| CAACAGGTGTTAAAATAACGACCTTTGGGCGCCTAGGGAGATTAGAGTATCGGTCGA | 1.0 |
| ATCTAAGCTGGACTTTGAACTTCATGTGTGGCCTAGGGAGATTAGAGTATCGGTCGA | 1.0 |
| TGTTTGAGTTCCAAAGTCCATGTTCATAACGCCTAGGGAGATTAGAGTATCGGTCGA | 1.0 |
| CACTTGTAGGCCTGTGTGCATGGAGTGCACGCCTAGGGAGATTAGAGTATCGGTCGA | 0.0 |
| CTGGAAATGTTTGTAGGGACTTTGACCCCTGCCTAGGGAGATTAGAGTATCGGTCGA | 1.0 |
| ATACAGAATCAATGCCTGATTCCAAAGTCCGCCTAGGGAGATTAGAGTATCGGTCGA | 1.0 |
| CTGCCCTTCTGACCTCCCAGGGATACTGTGGCCTAGGGAGATTAGAGTATCGGTCGA | 0.0 |
| TTAAGATTTGACCCTTGGCCAGGTGCAGTGGCCTAGGGAGATTAGAGTATCGGTCGA | 1.0 |
| AATGTTTGTAGGGACTTTGACCCCTAAAACGCCTAGGGAGATTAGAGTATCGGTCGA | 1.0 |
| CACTGTCTCAGGGTCCACATTCCAGGAATAGCCTAGGGAGATTAGAGTATCGGTCGA | 0.0 |
| TGACTACCAGGTTCTGTACTTTGGAACCTGGCCTAGGGAGATTAGAGTATCGGTCGA | 1.0 |
| TGAGACTTTGGACTTTTGAACTAAGGCTGGGCCTAGGGAGATTAGAGTATCGGTCGA | 1.0 |
| CTTTGGACTTTTGAACTAAGGCTGGAATGAGCCTAGGGAGATTAGAGTATCGGTCGA | 0.0 |
| AAGAGCTGAGGAAGTGCTGACCTTTGGTCTGCCTAGGGAGATTAGAGTATCGGTCGA | 1.0 |
| GTCAGAGTGCTGCATGCAAAAAGGCTGACCGCCTAGGGAGATTAGAGTATCGGTCGA | 0.0 |
| CCTAAACCTGCAAACCTTTGACCTTTCCATGCCTAGGGAGATTAGAGTATCGGTCGA | 1.0 |
| GAATCAATGCCTGATTCCAAAGTCCACTTTGCCTAGGGAGATTAGAGTATCGGTCGA | 1.0 |
| CTGAACTTTAAACTGGTGTGTCTTGCCTTTGCCTAGGGAGATTAGAGTATCGGTCGA | 0.0 |
| AATATCTCAGCACATGGCAGTGTACACTAGGCCTAGGGAGATTAGAGTATCGGTCGA | 0.0 |
| ATTCTCTTATCTACTTTAAGATTTGACCCTGCCTAGGGAGATTAGAGTATCGGTCGA | 1.0 |
| GGTTCCAGCATGGACTTCACAGCCTGTTAGGCCTAGGGAGATTAGAGTATCGGTCGA | 0.0 |
| CCTAGGTGCTGAAGATGCAACAGTGACCCAGCCTAGGGAGATTAGAGTATCGGTCGA | 0.0 |
| TGCATGCAAAAAGGCTGACCTTTGACTCTCGCCTAGGGAGATTAGAGTATCGGTCGA | 1.0 |
| CTGCCTGCTTGGCCTCTCCACTTGGGTATCGCCTAGGGAGATTAGAGTATCGGTCGA | 0.0 |
| AGCTACTAGCAAATCTGCCCAACCTTTGCCGCCTAGGGAGATTAGAGTATCGGTCGA | 0.0 |
| CTTTATCCTACAAGGGAGATAAACTTTATCGCCTAGGGAGATTAGAGTATCGGTCGA | 0.0 |
| GACTTTGAACTTCATGTGTGGTGCAGATTCGCCTAGGGAGATTAGAGTATCGGTCGA | 0.0 |
| TTTAAAAACTTATCTTGTGACCTTTGACTCGCCTAGGGAGATTAGAGTATCGGTCGA | 1.0 |
| ACTTTGCCTTTTGGCTAAAGTCCAAATTCCGCCTAGGGAGATTAGAGTATCGGTCGA | 1.0 |
| AGCAATGTTTCTTGTCCAGGGACTTTGAACGCCTAGGGAGATTAGAGTATCGGTCGA | 1.0 |
